- Target system: Steroid 17-alpha-hydroxylase/17,20 lyase (Homo sapiens, UniProt P05093)
- Method: Inhibition of human CYP17A1 expressed in HEK293 cell microsomes using [3H]-pregnenolone as substrate incubated for 45 mins by scintillation proximity assay in presence of NADPH
Recorded endpoint: IC50 (nM)

                          structure  unit_spec  measured_result
0  Cc1ccncc1-c1cccc2c1cnn2-c1cnccn1         nM                5
1  Cc1ccncc1-c1cccc2c1ncn2-c1ccccn1         nM                6
2  Cc1ccncc1-c1cccc2c1cnn2-c1ccccc1         nM                4

[1] Cc1ccncc1-c1cccc2c1ncn2-c1nccs1
[2] Cc1ccncc1-c1cccc2c1cnn2-c1cccnn1
[3] Cc1ccncc1-c1cccc2c1cnn2-c1ccccn1
[4] Cc1ccncc1-c1cccc2c1cnn2-c1cscn1
# input // ranking: key=IC50, reverse=True # format: label list in the order the request specifies
# output 1, 4, 2, 3

* * *

- Method: Clearance in cynomolgus monkey plasma at 2 mg/kg, iv by LC-MS/MS analysis
- Format: ADME, organism-based, Macaca fascicularis
Recorded endpoint: clearance (mL/min/kg)
Answer in mL/min/kg, number only, no unit symbol.

# input Please give the measured clearance for this compound: `Cc1ccncc1-c1cccc2c1ncn2CC(F)(F)F`
# output 19

* * *

- Method: Inhibition of cynomolgus monkey CYP21A2 using hydroxy progesterone as substrate incubated for 120 mins by LC-MS method
- Set-up: species or system Macaca fascicularis
Recorded endpoint: IC50 (nM)
Answer in nM, number only, no unit symbol.

# input Please give the measured IC50 for this compound: C[C@]12CC[C@H](O)CC1=CC[C@@H]1C2CC[C@]2(C)C(c3cccnc3)=CCC12 (some centres not stated)
# output 149

* * *

- Method: Metabolic stability in mouse liver microsomes assessed as parent compound remaining at 0.5 uM incubated for 10 mins
- Assay type: ADME
- Measurement parameters: read-out: Stability
Recorded endpoint: remaining at 10 min, 0.5 µM (%)

>>> df
                          structure            recorded_endpoint  unit_spec  measured_result
0   Cc1ccncc1-c1cccc2c1cnn2-c1nccs1  remaining at 10 min, 0.5 µM          %                8
1  Cc1ccncc1-c1cccc2c1cnn2-c1cnccn1  remaining at 10 min, 0.5 µM          %                7
2   Cc1ccncc1-c1cccc2c1ncn2-c1cscn1  remaining at 10 min, 0.5 µM          %               42
3  Cc1ccncc1-c1cccc2c1ncn2-c1cnccn1  remaining at 10 min, 0.5 µM          %               59
4  Cc1ccncc1-c1cccc2c1cnn2-c1cccnn1  remaining at 10 min, 0.5 µM          %               17

[1] Cc1ccncc1-c1cccc2c1cnn2-c1ccccc1
[2] Cc1ccncc1-c1cccc2c1cnn2-c1ccccn1
[3] Cc1ccncc1-c1cccc2c1cnn2-c1cscn1
# input // ranking: key=remaining at 10 min, 0.5 µM, reverse=True # format: label list in the order the request specifies
# output 3, 2, 1

* * *

- Target system: Steroid 17-alpha-hydroxylase/17,20 lyase (Homo sapiens)
- Sequence (P05093 whole entry): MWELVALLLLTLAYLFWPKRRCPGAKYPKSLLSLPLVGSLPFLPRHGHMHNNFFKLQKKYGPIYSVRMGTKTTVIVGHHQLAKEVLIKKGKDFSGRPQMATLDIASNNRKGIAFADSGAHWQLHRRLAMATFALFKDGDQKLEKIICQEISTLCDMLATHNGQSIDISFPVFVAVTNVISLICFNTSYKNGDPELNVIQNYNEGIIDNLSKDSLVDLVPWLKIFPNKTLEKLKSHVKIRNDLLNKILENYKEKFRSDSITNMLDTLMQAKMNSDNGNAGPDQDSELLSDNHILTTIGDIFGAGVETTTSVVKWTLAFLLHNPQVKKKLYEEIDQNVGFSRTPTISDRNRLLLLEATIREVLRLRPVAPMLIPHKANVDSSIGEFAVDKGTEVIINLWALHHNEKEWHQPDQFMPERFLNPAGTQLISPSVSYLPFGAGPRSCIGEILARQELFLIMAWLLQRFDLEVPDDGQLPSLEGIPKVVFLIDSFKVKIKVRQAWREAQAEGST
- Method: Inhibition of human CYP17A1 expressed in HEK293 cell microsomes using [3H]-pregnenolone as substrate incubated for 45 mins by scintillation proximity assay in presence of NADPH
pIC50: −log10 of the molar value.
Recorded endpoint: pIC50

                         structure  recorded_endpoint  measured_result
0  Cc1ccncc1-c1cccc2c1cnn2-c1nccs1              pIC50             8.40

[I] Cc1ccncc1-c1cccc2c1cnn2-c1ccc(F)cc1
[II] Cc1ccncc1-c1cccc2c1ncn2-c1cscn1
[III] Cc1ccncc1-c1cccc2c1ncn2CC(F)(F)F
# input // ranking: key=pIC50, reverse=True # format: label list in the order the request specifies
# output I, II, III
(I: 8.30, II: 8.10, III: 7.72)

Where these numbers come from: ChEMBL document CHEMBL3779801
